Source listed as patent US20250295664A1.

- System: KRAS G12C mutant NSCLC cell line HOP-62
- assay-procedure: IC50 shift experiment, cell proliferation (Cell Titer Glo), 144 h
- Type: cell-based
- condition-notes: IC50 shift of KRAS G12C inhibitor N°2, no TEADi vs TEAD inhibitor 0.1 μM
property: KRAS G12Ci No2 fold change vs 0.1 μM (fold)

C=CC(=O)Nc1ccc2c(c1)C(Nc1ccc(F)c(F)c1)CC2 (stereo not drawn) [TEAD inhibitor N°7]    9
C=CC(=O)Nc1ccc2c(c1)c(C)cn2Cc1cccc(C(F)(F)F)c1 [TEAD inhibitor N°5]    8
C=CC(=O)Nc1ccc2c(ccn2-c2ccc(C(F)(F)F)cc2)c1 [TEAD inhibitor N°3]    9
C=CC(=O)Nc1ccc2c(c1)C(Oc1ccc(C(F)(F)F)cc1)CC2 (stereo not drawn) [TEAD inhibitor N°8]    10
C=CC(=O)Nc1ccc2c(c1)c(COC)cn2-c1ccc(C(F)(F)F)cc1 [TEAD inhibitor N°4]    8
C=CC(=O)Nc1ccc2c(c1)C(O[C@H]1CC[C@H](C(F)(F)F)CC1)CC2 (relative stereo) [TEAD inhibitor N°6]    6

----------
- Test system: KRAS G12C mutant NSCLC cell line HOP-62
- assay-procedure: IC50 shift experiment, cell proliferation (Cell Titer Glo), 144 h
- Format: cell-based
- condition-notes: IC50 shift of KRAS G12C inhibitor N°1, no TEADi vs TEAD inhibitor 1 μM
property: KRAS G12Ci No1 fold change vs 1 μM (fold)

C=CC(=O)Nc1ccc2c(c1)C(Nc1ccc(F)c(F)c1)CC2 (stereo not shown)    13
C=CC(=O)Nc1ccc2c(c1)C(Oc1ccc(C(F)(F)F)cc1)CC2 (stereo not shown)    9
C=CC(=O)Nc1ccc2c(c1)C(O[C@H]1CC[C@H](C(F)(F)F)CC1)CC2 (relative stereo)    6
C=CC(=O)Nc1ccc2c(c1)c(C)cn2Cc1cccc(C(F)(F)F)c1    7
C=CC(=O)Nc1ccc2c(ccn2-c2ccc(C(F)(F)F)cc2)c1    7
C=CC(=O)Nc1ccc(C)c(Oc2ccc(Cl)cc2)c1 [TEAD inhibitor N°1, reference compound]    9
C=CC(=O)Nc1ccc2c(c1)c(COC)cn2-c1ccc(C(F)(F)F)cc1    10
